target: UniProt Q27546
Sequence (Q27546 whole entry): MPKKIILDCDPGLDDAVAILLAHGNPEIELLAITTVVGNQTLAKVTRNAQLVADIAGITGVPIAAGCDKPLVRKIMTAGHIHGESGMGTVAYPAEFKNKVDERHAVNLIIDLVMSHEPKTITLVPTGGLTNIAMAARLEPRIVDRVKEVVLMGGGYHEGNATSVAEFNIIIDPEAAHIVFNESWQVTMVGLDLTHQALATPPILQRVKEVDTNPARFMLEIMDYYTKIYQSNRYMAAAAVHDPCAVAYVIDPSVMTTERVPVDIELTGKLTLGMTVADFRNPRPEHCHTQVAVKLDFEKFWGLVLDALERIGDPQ
ENDPOINT LABEL: Ki (µM)

>>> meas_value("Nc1ncnc2c1ncn2C[C@@H]1N[C@H](CO)[C@@H](O)[C@H]1O")
5.4

====

experiment: Cytotoxicity against human HeLa cells; type: cell-based
ENDPOINT LABEL: CC50 (µg/mL)

>>> meas_value("Nc1ncnc2c1ncn2C[C@H]1CC[C@@H](CO)C1")
80

====

experiment: Antiproliferative activity against mouse L1210/0 cells; type: functional, cell-based
Quick reference: IC50 of the listed items.
ENDPOINT LABEL: IC50

>>> meas_value("O=c1[nH]c(=O)n([C@H]2CC[C@@H](CO)C2)cc1I")
"73 µg/mL"
>>> meas_value("OCC1CCCC1n1cnc2c(Cl)ncnc21 (stereo unspecified)")
"19 µg/mL"
>>> meas_value("Nc1ncnc2c1ncn2C[C@H]1CC[C@@H](CO)C1")
"73 µg/mL"
>>> meas_value("Nc1ncnc2c1ncn2C[C@H]1CCC[C@H]1CO")
"100 µg/mL"
>>> meas_value("CC1(C)[C@@H](Cn2cnc3c(Cl)nc(N)nc32)CC[C@@]1(C)CO")
"16.2 µg/mL"
>>> meas_value("O=c1[nH]c(=O)n(C2CCCC2CO)cc1I (stereo unspecified)")
"65.8 µg/mL"

====

test system: Cytomegalovirus; experiment: Antiviral activity against Cytomegalovirus AD169 infected in HEL cells; type: functional, organism-based; details: Human betaherpesvirus 5, AD169, HEL
pEC50: −log10 of the molar value.
ENDPOINT LABEL: pEC50

>>> meas_value("Nc1nc2c(ncn2COC(CO)CO)c(=O)[nH]1")
6.60
>>> meas_value("CC(C)(C)[Si](OC[C@H]1C[C@@H](Cn2cnc3c(N)ncnc32)c2cn(Cc3ccccc3)nc21)(c1ccccc1)c1ccccc1")
6.30
>>> meas_value("CC(C)(C)[Si](OC[C@H]1C[C@@H](Cn2cnc3c(Cl)nc(N)nc32)c2cn(Cc3ccccc3)nc21)(c1ccccc1)c1ccccc1")
6.36

====

experiment: Antiproliferative activity against human Molt4/C8 cells; assay type: functional, cell-based; details: MOLT-4
ENDPOINT LABEL: log10(IC50) (log10 of the value in µg/mL)

>>> meas_value("Nc1ncnc2c1ncn2C[C@H]1CCC[C@H]1CO")
2.00
>>> meas_value("O=c1[nH]c(=O)n([C@H]2CC[C@@H](CO)C2)cc1I")
1.86
>>> meas_value("CC1(C)[C@@H](Cn2cnc3c(Cl)nc(N)nc32)CC[C@@]1(C)CO")
1.12
>>> meas_value("OCC1CCCC1n1cnc2c(Cl)ncnc21 (configuration not stated)")
1.28
>>> meas_value("Nc1ncnc2c1ncn2C[C@H]1CC[C@@H](CO)C1")
1.86
>>> meas_value("CC1(C)[C@@H](Cn2cnc3c(Cl)ncnc32)CC[C@@]1(C)CO")
0.58
>>> meas_value("O=c1[nH]c(=O)n(C2CCCC2CO)cc1I (configuration not stated)")
1.82

====

assay: Cytotoxicity against human CEM/0 cells; format: cell-based, CCRF-CEM
ENDPOINT LABEL: CC50 (µg/mL)

>>> meas_value("Nc1ncnc2c1ncn2C[C@H]1CC[C@@H](CO)C1")
80

====

experiment: Cytotoxicity against human CEM/0 cells assessed as reduction in cell viability; type: cell-based, CCRF-CEM
ENDPOINT LABEL: CC50

>>> meas_value("Nc1nc(Cl)c2ncn(C[C@H]3CC[C@@H](CO)C3)c2n1")
"1 µg/mL"

====

test: Cytotoxicity against HEL cells; assay type: cell-based; conditions: human
ENDPOINT LABEL: CC50

>>> meas_value("Nc1ncnc2c1ncn2C[C@H]1CC[C@@H](CO)C1")
"80 µg/mL"

====

Quick reference: IC50 of the listed items.
test: Inhibition of Escherichia coli methionyl-tRNA synthetase assessed as decrease in [35S]methionyl-tRNA generation
ENDPOINT LABEL: IC50 (µM)

>>> meas_value("CSCC[C@H](N)C(=O)N(O)C[C@H]1O[C@@H](Cn2cnc3c(N)ncnc32)[C@H](O)[C@@H]1O")
3.6
>>> meas_value("CSCC[C@H](N)C(=O)OC[C@H]1O[C@@H](n2cnc3c(N)ncnc32)[C@H](O)[C@@H]1O")
5
>>> meas_value("CSCC[C@H](N)C(=O)OC[C@H]1O[C@@H](Cn2cnc3c(N)ncnc32)[C@H](O)[C@@H]1O")
3.6
>>> meas_value("CSCC[C@H](N)C(=O)OC[C@H]1O[C@@H](Cn2cnc3c(NCc4ccccc4)ncnc32)[C@H](O)[C@@H]1O")
3.6
>>> meas_value("CSCC[C@H](N)C(=O)OC[C@H]1O[C@@H](CCn2cnc3c(N)ncnc32)[C@H](O)[C@@H]1O")
8.3

====

experiment: Cytotoxicity against African green monkey Vero cells assessed as alteration in cell morphology by microscopic method; format: cell-based; conditions: chlorocebus sabaeus
ENDPOINT LABEL: CC50 (µg/mL)

>>> meas_value("Nc1nc(Cl)c2ncn(C[C@H]3CC[C@@H](CO)C3)c2n1")
1

====

test system: Human immunodeficiency virus 1; experiment: Antiviral activity against HIV1 infected in human MT4 cells assessed as inhibition of virus-induced cytopathic effect; format: functional, organism-based; details: Human immunodeficiency virus 1, MT4
ENDPOINT LABEL: EC50 (µM)

>>> meas_value("Nc1ccn(CC2(CO)CC=CC2)c(=O)n1")
56.4

====

experiment: Binding affinity to HSV1 uracil-DNA glycosylase after 30 mins by electrophoretic mobility shift assay; set-up: species or system Human alphaherpesvirus 1
pKd: −log10 of the molar value.
ENDPOINT LABEL: pKd

>>> meas_value("O=c1ccn(C[C@H]2C[C@H](O)[C@@H](CO)O2)c(=O)[nH]1")
6.80

====

experiment: Cytotoxicity against human E6SM cells; type: cell-based
ENDPOINT LABEL: CC50 (µg/mL)

>>> meas_value("Nc1ncnc2c1ncn2C[C@H]1CC[C@@H](CO)C1")
80

====

experiment: Cytotoxicity against HEL cells assessed as reduction in cell viability; type: cell-based; details: human
ENDPOINT LABEL: CC50

>>> meas_value("Nc1nc(Cl)c2ncn(C[C@H]3CC[C@@H](CO)C3)c2n1")
"1 µg/mL"

====

experiment: Cytotoxicity against African green monkey Vero cells; assay type: cell-based; settings: chlorocebus sabaeus
ENDPOINT LABEL: CC50 (µg/mL)

>>> meas_value("Nc1ncnc2c1ncn2C[C@H]1CC[C@@H](CO)C1")
80

====

assay: Cytotoxicity against MDCK cells; type: cell-based, Canis lupus familiaris; settings: dog
ENDPOINT LABEL: CC50 (µg/mL)

>>> meas_value("Nc1ncnc2c1ncn2C[C@H]1CC[C@@H](CO)C1")
80
